System: Fibroblast growth factor receptor 1 (Homo sapiens, UniProt P11362) | Read-out: IC50 | Origin: multiple publications
property.label: IC50 (nM)

>  <mol>
Cc1nn2cc1Nc1ncc(C(F)(F)F)c(n1)NCCCNC(=O)C2(C)C

>  <IC50 [nM]>
135

$$$$

1 = C=CC(=O)Nc1ccc(CCNc2nc(Nc3ccc(N4CCN(C)CC4)cc3)ncc2Cl)cc1
2 = Cc1nn2cc1Nc1ncc3c(Cl)cc(n3n1)CCCNC(=O)C2(C)C
3 = C=C(C(=O)Nc1ccc(-c2c(-c3ccc(Oc4nccc(C)n4)c(F)c3)c3c(N)ncnc3n2C)cn1)C1CC1
Ask: Arrange these 3 compounds in increasing order of IC50. Lab note: record answer as labels in requested order.
Result: 1, 2, 3
